Reference source for all entries: paper PMC8126939

# Assay Target: T1, GST-praja2_(550–610) (human, UniProt O43164 550-610, fluorescent dye on primary amines (NHS-ester labelling))
# T1 construct: praja2 (PJA2), human, residues 550-610; The results call P1-P3 synthetic peptides; the methods describe recombinant GST fusions; also called P2; source: recombinant, purified (GST Trap, Superdex 75 gel filtration)
# T1 sequence (looked up): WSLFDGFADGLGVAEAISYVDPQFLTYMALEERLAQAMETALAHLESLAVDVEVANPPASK
# Assay Procedure: MST; Monolith NT 115; GST-praja2 fragments labelled with NHS-ester dye, TBC1D31 peptides titrated (16-point 1:1 dilution); 25°C, 20 mM NaP, 200 mM NaCl, 1 mM DTT, 0.05% Tween-20, pH 7.4
# Stated Conditions: both partners purified
Assay Readout: Kd (µM)
// return numeric value only (unit: µM, not printed)

Query: Tell me the measured Kd of WDTTGQNLIKKVRNLRQRLTARARHRCQTPHLLAA (TBC1D31, human, C-terminus segment; also called WA35 TBC1D31; wild-type TBC1D31 peptide; source: synthetic peptide (bought: Shanghai Apeptide Co., Ltd)) [peptide of the C-terminus segment of TBC1D31] , please.
Result: 80
